- Tested on: α-isomaltosylglucosaccharide-forming enzyme from Bacillus globisporus N75
- Assay notes: Action on saccharides (TLC before and after enzymatic reaction)
- Type: biochemical
- Parameters: key: −: it showed no change; +: it showed a slight reduction of the color spot of the substrate and the formation of other reaction product; ++: it showed a high reduction of the color spot of the substrate and the formationof other reaction product; +++: it showed a substantial disappearance of the substrate spot and the formation of other reaction product
- Condition details: two units/g substrate, substrate 2% (w/v), 30° C., pH 6.0, 24 hours
Parameter: Enzyme action, N75 enzyme

OC[C@H]1O[C@@H](O[C@H]2O[C@H](CO)[C@@H](O)[C@H](O)[C@H]2O)[C@H](O)[C@@H](O)[C@@H]1O    +
OC[C@H]1O[C@H](OC[C@H]2O[C@H](OC[C@H]3OC(O)[C@H](O)[C@@H](O)[C@@H]3O)[C@H](O)[C@@H](O)[C@@H]2O)[C@H](O)[C@@H](O)[C@@H]1O (stereo partly drawn)    −
OC[C@H]1O[C@@H](OC[C@H]2OC(O)[C@H](O)[C@@H](O)[C@@H]2O)[C@H](O)[C@@H](O)[C@@H]1O (stereo partly drawn)    −
